# subject.of.test: UniProtKB P80912
# Sequence (P80912 whole entry): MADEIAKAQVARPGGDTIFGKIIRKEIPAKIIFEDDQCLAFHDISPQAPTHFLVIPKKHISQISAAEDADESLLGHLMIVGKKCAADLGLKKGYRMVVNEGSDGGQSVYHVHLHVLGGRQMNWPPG
# test: Drug metabolism assessed as recombinant rabbit HINT1-mediated hydrolysis of NH2-pdFdC to pdFdC per ug protein at 0.2 mM by RP-HPLC analysis
# Type: ADME
# conditions: 200 µM
Please provide measured Drug metabolism for the entries that follow.
Answer as a quantity: numeral, then unit.

Item Nc1ncnc2c1ncn2[C@@H]1O[C@H](COP(N)(=O)O)[C@@H](O)[C@H]1O ; assay system UniProtKB P80912; Drug metabolism reported as 1.71 nmol/min/µg

Simply: Nc1ccn([C@@H]2O[C@H](COP(N)(=O)O)[C@@H](O)C2(F)F)c(=O)n1 , UniProtKB P80912, Drug metabolism = 0.88 nmol/min/µg

====

# subject.of.test: UniProt:P49773
# test: Stability in human HeLa cell lysate assessed as HINT-1-mediated phosphoramidase activity by measuring compound remaining at 1 mM after 22 hrs by RP-HPLC analysis relative to control
# Assay type: ADME, cell-based
# conditions: read-out: Stability
observable: remaining at 22 h, 1000 µM
Please answer using a numeric value trailed by its unit.

Given item Nc1ccn([C@@H]2O[C@H](COP(=O)(S)NC(=O)c3ccccc3)[C@@H](O)C2(F)F)c(=O)n1 (stereo not given in full) , the value recorded as its remaining at 22 h, 1000 µM is 100%

Form field remaining at 22 h, 1000 µM, entry Nc1ccn([C@@H]2O[C@H](COP(=O)(S)NC(=O)c3cccnc3)[C@@H](O)C2(F)F)c(=O)n1 (stereo not given in full) : 100%

Reported remaining at 22 h, 1000 µM for CC(=O)NP(=O)(S)OC[C@H]1O[C@@H](n2ccc(N)nc2=O)C(F)(F)[C@@H]1O (stereo not given in full) was 100%

Lookup result for Nc1ccn([C@@H]2O[C@H](COP(=O)(O)NC(=O)c3ccncc3)[C@@H](O)C2(F)F)c(=O)n1 ; measured remaining at 22 h, 1000 µM: 76.7%

// remaining at 22 h, 1000 µM value for CC(=O)N1CCC[C@H]1C(=O)NP(=O)(O)OC[C@H]1O[C@@H](n2ccc(N)nc2=O)C(F)(F)[C@@H]1O : 89.6%

Field remaining at 22 h, 1000 µM (entry Nc1ccn([C@@H]2O[C@H](COP(=O)(O)NC(=O)c3ccccc3)[C@@H](O)C2(F)F)c(=O)n1 ) reads 78.7%

Data point: Nc1ccn([C@@H]2O[C@H](COP(=O)(O)NC(=O)c3cccnc3)[C@@H](O)C2(F)F)c(=O)n1 ; remaining at 22 h, 1000 µM = 95.5%

Just so you know, measured remaining at 22 h, 1000 µM for CC(=O)NP(=O)(O)OC[C@H]1O[C@@H](n2ccc(N)nc2=O)C(F)(F)[C@@H]1O came out at 94.1%

Reported remaining at 22 h, 1000 µM for CC(=O)N1CCC[C@H]1C(=O)NP(=O)(S)OC[C@H]1O[C@@H](n2ccc(N)nc2=O)C(F)(F)[C@@H]1O (stereo not given in full) was 100%

Record summary for CC(=O)N[C@@H](Cc1ccccc1)C(=O)NP(=O)(O)OC[C@H]1O[C@@H](n2ccc(N)nc2=O)C(F)(F)[C@@H]1O : reported remaining at 22 h, 1000 µM = 71%

====

# subject.of.test: HINT1 (adenosine 5'-monophosphoramidase) (Homo sapiens, UniProt P49773)
# Sequence (P49773 whole entry): as the sequence (P80912 whole entry) above, with Q37R, A65V, A69D, K91N, N122H counted along it
# test: Stability in human K562 cell lysate assessed as HINT-1-mediated phosphoramidase activity by measuring compound remaining at 1 mM after 22 hrs by RP-HPLC analysis relative to control
# Format: ADME, cell-based
# conditions: read-out: Stability
Consider the following molecules; for each one, report its remaining at 22 h, 1000 µM.
Give a bare numeral; the unit % is implied.

// remaining at 22 h, 1000 µM lookup, molecule = Nc1ccn([C@@H]2O[C@H](COP(=O)(S)NC(=O)c3cccnc3)[C@@H](O)C2(F)F)c(=O)n1 (stereo not given in full) , result: 93.4

// recorded remaining at 22 h, 1000 µM for Nc1ccn([C@@H]2O[C@H](COP(=O)(O)NC(=O)c3cccnc3)[C@@H](O)C2(F)F)c(=O)n1 : 86.8

Just so you know, measured remaining at 22 h, 1000 µM for CC(=O)N1CCC[C@H]1C(=O)NP(=O)(S)OC[C@H]1O[C@@H](n2ccc(N)nc2=O)C(F)(F)[C@@H]1O (stereo not given in full) came out at 85.3

According to the records, this molecule CC(=O)N[C@@H](Cc1ccccc1)C(=O)NP(=O)(O)OC[C@H]1O[C@@H](n2ccc(N)nc2=O)C(F)(F)[C@@H]1O displays remaining at 22 h, 1000 µM of 45.9

Given item CC(=O)N1CCC[C@H]1C(=O)NP(=O)(O)OC[C@H]1O[C@@H](n2ccc(N)nc2=O)C(F)(F)[C@@H]1O , the value recorded as its remaining at 22 h, 1000 µM is 80.2

Record Nc1ccn([C@@H]2O[C@H](COP(=O)(O)NC(=O)c3ccccc3)[C@@H](O)C2(F)F)c(=O)n1 . Reported remaining at 22 h, 1000 µM: 67.4

Reported remaining at 22 h, 1000 µM for CC(=O)NP(=O)(S)OC[C@H]1O[C@@H](n2ccc(N)nc2=O)C(F)(F)[C@@H]1O (stereo not given in full) was 88.4

Value of measured remaining at 22 h, 1000 µM for the entry Nc1ccn([C@@H]2O[C@H](COP(=O)(S)NC(=O)c3ccccc3)[C@@H](O)C2(F)F)c(=O)n1 (stereo not given in full) : 91.5

Notebook: CC(=O)NP(=O)(O)OC[C@H]1O[C@@H](n2ccc(N)nc2=O)C(F)(F)[C@@H]1O , remaining at 22 h, 1000 µM read as 85.1

Value of remaining at 22 h, 1000 µM reported for the molecule Nc1ccn([C@@H]2O[C@H](COP(=O)(O)NC(=O)c3ccncc3)[C@@H](O)C2(F)F)c(=O)n1 is 82.8
